Biological target: T1, RBFOX1 RRM (Homo sapiens, UniProt Q9NWB1 109-208)
T1 sequence: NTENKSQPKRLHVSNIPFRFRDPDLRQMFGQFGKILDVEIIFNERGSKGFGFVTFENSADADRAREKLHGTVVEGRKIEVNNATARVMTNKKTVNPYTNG
Experiment: EMSA; HiTS-Eq, 1 nM pool, 10 min; buffer printed only for the single-RNA assays: 10 mM Tris pH 7.5, 150 mM NaCl, 3.4 mM EDTA, 0.001% NP-40, 30 C
Conditions: tags: His6 N-terminal (pET28a); label: 5' 32P
The full ranking holds about 16,000 sequences; the median of “ka relative to ugcaugu” is about 0.0091, and the highest 2% start at about 0.032. The sample holds the highest values, similar sequences and a random draw of the others, so the mix is not that of the screen.
endpoint-name: binding signal

# binder, binding signal
records = [
    ("CGGGUCU (DNA:RNA) RNA: GGGAGACCGGAAUUCAGAUUGUCCCGGGUCUUUAAAUCCCGUCGUAGCCACCA DNA 1: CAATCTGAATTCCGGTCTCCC DNA 2: TGGTGGCTACGACGGGATT", "0.0296 KA relative to UGCAUGU"),
    ("CGGGGUC (DNA:RNA) RNA: GGGAGACCGGAAUUCAGAUUGUCCCGGGGUCUUAAAUCCCGUCGUAGCCACCA DNA 1: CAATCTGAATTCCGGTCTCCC DNA 2: TGGTGGCTACGACGGGATT", "0.0407 KA relative to UGCAUGU"),
]

Would you mind listing binding signal for each of the following binders?
1. CGCGAUU (DNA:RNA) RNA: GGGAGACCGGAAUUCAGAUUGUCCCGCGAUUUUAAAUCCCGUCGUAGCCACCA DNA 1: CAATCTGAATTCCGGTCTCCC DNA 2: TGGTGGCTACGACGGGATT
2. AGGGCGU (DNA:RNA) RNA: GGGAGACCGGAAUUCAGAUUGUCCAGGGCGUUUAAAUCCCGUCGUAGCCACCA DNA 1: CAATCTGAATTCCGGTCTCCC DNA 2: TGGTGGCTACGACGGGATT
3. GGGUCUU (DNA:RNA) RNA: GGGAGACCGGAAUUCAGAUUGUCCGGGUCUUUUAAAUCCCGUCGUAGCCACCA DNA 1: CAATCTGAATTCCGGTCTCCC DNA 2: TGGTGGCTACGACGGGATT
4. GGGGGUC (DNA:RNA) RNA: GGGAGACCGGAAUUCAGAUUGUCCGGGGGUCUUAAAUCCCGUCGUAGCCACCA DNA 1: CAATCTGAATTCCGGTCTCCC DNA 2: TGGTGGCTACGACGGGATT
5. CGUCGAU (DNA:RNA) RNA: GGGAGACCGGAAUUCAGAUUGUCCCGUCGAUUUAAAUCCCGUCGUAGCCACCA DNA 1: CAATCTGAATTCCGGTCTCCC DNA 2: TGGTGGCTACGACGGGATT
6. AGGAUUU (DNA:RNA) RNA: GGGAGACCGGAAUUCAGAUUGUCCAGGAUUUUUAAAUCCCGUCGUAGCCACCA DNA 1: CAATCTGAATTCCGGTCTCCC DNA 2: TGGTGGCTACGACGGGATT
7. UGGGUGG (DNA:RNA) RNA: GGGAGACCGGAAUUCAGAUUGUCCUGGGUGGUUAAAUCCCGUCGUAGCCACCA DNA 1: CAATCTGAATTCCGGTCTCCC DNA 2: TGGTGGCTACGACGGGATT

1. 0.0158 KA relative to UGCAUGU
2. 0.0222 KA relative to UGCAUGU
3. 0.00918 KA relative to UGCAUGU
4. 0.0306 KA relative to UGCAUGU
5. 0.00831 KA relative to UGCAUGU
6. 0.0177 KA relative to UGCAUGU
7. 0.0279 KA relative to UGCAUGU
